tested-system: 5-HT2A receptor (Homo sapiens)
Construct: expressed in transfected cells; host or cells: HEK293
Sequence (P28223 whole entry): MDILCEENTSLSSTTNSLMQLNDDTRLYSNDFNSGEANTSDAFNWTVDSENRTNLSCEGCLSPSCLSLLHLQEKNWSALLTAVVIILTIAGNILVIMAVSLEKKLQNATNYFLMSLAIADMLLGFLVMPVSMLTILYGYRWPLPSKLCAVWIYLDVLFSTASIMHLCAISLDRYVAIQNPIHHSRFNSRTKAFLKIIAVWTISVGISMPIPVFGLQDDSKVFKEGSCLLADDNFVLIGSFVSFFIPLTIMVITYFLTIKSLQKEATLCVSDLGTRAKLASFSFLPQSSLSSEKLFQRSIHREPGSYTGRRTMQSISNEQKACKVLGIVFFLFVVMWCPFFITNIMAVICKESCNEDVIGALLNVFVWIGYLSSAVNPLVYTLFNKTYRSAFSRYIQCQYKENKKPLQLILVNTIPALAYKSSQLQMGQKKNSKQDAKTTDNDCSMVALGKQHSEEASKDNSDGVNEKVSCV
measurement-description: 5-HT2A receptor binding test
particulars: [3H]-Ketanserin, 5-HT2A receptor expressed in HEK293 cells; read-out: Affinity of the compound for each receptor (Ki value, nM) 5-HT2A
attribute-measured: Ki (nM)

CN(C)C(=O)N[C@H]1CC[C@H](CCN2CCN(c3cc(-c4ccco4)cc(N4CCOCC4)n3)CC2)CC1 [Compound V-3] | 5

(A) COc1ccc(-c2cc(N3CCOCC3)nc(N3CCN(CC[C@H]4CC[C@H](NC(=O)N5CCCC5)CC4)CC3)c2)cc1 [III-1]
(B) O=C(N[C@H]1CC[C@H](CCN2CCN(c3cc(-c4cccs4)cc(N4CCOCC4)n3)CC2)CC1)c1cccnc1 [VI-3]
(C) CN(C)C(=O)N[C@H]1CC[C@H](CCN2CCN(c3cc(-c4cccnc4)cc(N4CCOCC4)n3)CC2)CC1 [IV-3]
input: List items by Ki in falling order. Answer with the labels in sequence, matching the requested order.
output: A, C, B
(A: 10.8 nM, C: 3.6 nM, B: 1.7 nM)
